Listed next: entries and their corresponding pIC50.
# target-of-assay: UniProt P41595
# Sequence (P41595 whole entry): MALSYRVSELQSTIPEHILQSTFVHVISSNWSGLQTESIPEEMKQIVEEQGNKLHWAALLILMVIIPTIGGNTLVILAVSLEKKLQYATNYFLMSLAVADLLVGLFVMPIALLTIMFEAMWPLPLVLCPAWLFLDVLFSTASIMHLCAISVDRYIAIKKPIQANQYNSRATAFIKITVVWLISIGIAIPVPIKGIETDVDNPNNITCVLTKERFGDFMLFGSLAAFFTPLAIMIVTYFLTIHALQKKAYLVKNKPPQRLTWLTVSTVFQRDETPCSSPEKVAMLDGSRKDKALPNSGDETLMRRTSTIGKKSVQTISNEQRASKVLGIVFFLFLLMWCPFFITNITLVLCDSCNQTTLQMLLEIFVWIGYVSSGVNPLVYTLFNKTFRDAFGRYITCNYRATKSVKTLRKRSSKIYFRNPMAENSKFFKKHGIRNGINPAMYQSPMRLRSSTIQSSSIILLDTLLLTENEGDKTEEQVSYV
# experimental-details: 5HTR2B antagonist activity, calcium mobilization assay in human Maverick/293 cells (serotonin as agonist)
# experimental-setup: intracellular calcium, emission 525 nm, read-out: Ca assay IC50
Answer as the number alone; pIC50 is minus log10 of concentration in mol/L.

The cases that follow already have their pIC50 on record.
{"compound": "COc1ccc(S(=O)(=O)N[C@H]2CCOC2)cc1C(=O)Nc1ccccc1C#N [Compound 164]", "pIC50": 8.96}
{"compound": "COc1ccc(S(=O)(=O)N[C@H]2CCCOC2)cc1C(=O)Nc1ccc(F)c(C(F)F)c1 [Compound 37]", "pIC50": 9.10}

Query block: Given the compound COc1ccc(S(=O)(=O)N[C@H]2CC[C@@H](O)CC2)cc1C(=O)Nc1ccc(F)c(C(F)F)c1 [Compound 38] , what is its reported pIC50?
Result block: 9.22

Query block: Next compound: COc1ccc(S(=O)(=O)N[C@H]2CCOC2)cc1C(=O)Nc1cc(Cl)cc(Cl)c1 [Compound 86]
Result block: 8.74
